- SUBJECT_OF_TEST: Bile salt export pump (Homo sapiens, UniProt O95342)
- Sequence (O95342 whole entry): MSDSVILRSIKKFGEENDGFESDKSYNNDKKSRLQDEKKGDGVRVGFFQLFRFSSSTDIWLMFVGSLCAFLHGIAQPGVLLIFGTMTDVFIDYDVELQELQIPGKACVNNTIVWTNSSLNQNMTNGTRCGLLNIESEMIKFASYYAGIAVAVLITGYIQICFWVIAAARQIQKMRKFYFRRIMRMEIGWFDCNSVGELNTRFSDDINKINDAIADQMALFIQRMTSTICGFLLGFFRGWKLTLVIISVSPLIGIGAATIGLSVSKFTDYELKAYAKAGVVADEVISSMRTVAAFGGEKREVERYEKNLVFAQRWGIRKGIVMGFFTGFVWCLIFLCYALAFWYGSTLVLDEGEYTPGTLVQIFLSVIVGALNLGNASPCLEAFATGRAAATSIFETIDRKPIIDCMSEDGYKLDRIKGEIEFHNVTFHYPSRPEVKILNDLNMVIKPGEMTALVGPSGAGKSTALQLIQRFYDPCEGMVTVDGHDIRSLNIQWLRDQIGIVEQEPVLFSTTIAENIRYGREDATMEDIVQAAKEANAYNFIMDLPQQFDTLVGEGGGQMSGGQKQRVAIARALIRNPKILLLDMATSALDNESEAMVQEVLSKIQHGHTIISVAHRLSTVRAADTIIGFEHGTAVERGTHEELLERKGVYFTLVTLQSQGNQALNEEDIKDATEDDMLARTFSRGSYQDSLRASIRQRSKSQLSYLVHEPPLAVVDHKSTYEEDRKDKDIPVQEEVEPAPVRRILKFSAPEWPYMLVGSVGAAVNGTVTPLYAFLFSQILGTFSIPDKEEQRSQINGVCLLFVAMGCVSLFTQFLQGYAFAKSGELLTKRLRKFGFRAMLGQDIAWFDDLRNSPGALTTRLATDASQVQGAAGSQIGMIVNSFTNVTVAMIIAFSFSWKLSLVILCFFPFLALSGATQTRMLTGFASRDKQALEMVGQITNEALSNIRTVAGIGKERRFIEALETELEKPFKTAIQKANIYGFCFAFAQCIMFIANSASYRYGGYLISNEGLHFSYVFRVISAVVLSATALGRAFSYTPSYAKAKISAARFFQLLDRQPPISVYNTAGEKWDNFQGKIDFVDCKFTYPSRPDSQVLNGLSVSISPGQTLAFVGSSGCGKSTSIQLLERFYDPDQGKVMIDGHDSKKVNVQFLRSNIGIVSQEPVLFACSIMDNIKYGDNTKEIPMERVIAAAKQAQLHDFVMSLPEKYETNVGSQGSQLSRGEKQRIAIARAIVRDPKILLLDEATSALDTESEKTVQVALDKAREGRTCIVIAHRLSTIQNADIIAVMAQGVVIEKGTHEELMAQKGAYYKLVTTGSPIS
- Type: functional
For each entry below, report its AC50 value.

Q) Could you share which AC50 value was measured for C[C@@H](Oc1cc(-c2cnn(C3CCNCC3)c2)cnc1N)c1c(Cl)ccc(F)c1Cl [CRIZOTINIB] ?
A) 154 µM

Q) Could you share which AC50 value was measured for Cc1onc(-c2ccccc2)c1-c1ccc(S(N)(=O)=O)cc1 [VALDECOXIB] ?
A) 240 µM

Q) Could you share which AC50 value was measured for CC(C)N(CCC(C(N)=O)(c1ccccc1)c1ccccn1)C(C)C (centres undefined) [DISOPYRAMIDE] ?
A) > 300 µM

Q) Could you share which AC50 value was measured for Cc1onc(-c2ccccc2)c1C(=O)N[C@@H]1C(=O)N2[C@@H]1SC(C)(C)[C@@H]2C(=O)O [OXACILLIN] ?
A) 220 µM

Q) Could you share which AC50 value was measured for C[C@H]1c2cccc(O)c2C(=O)C2=C(O)[C@]3(O)C(=O)C(C(N)=O)=C(O)[C@@H](N(C)C)[C@@H]3[C@@H](O)[C@@H]21 [DOXYCYCLINE] ?
A) > 300 µM

Q) Could you share which AC50 value was measured for CN(C)CCC[C@@]1(c2ccc(F)cc2)OCc2cc(C#N)ccc21 [ESCITALOPRAM] ?
A) > 300 µM

Q) Could you share which AC50 value was measured for CC(C)(C)NCC(O)c1cc(O)cc(O)c1 (centres undefined) [TERBUTALINE] ?
A) > 300 µM

Q) Could you share which AC50 value was measured for CCCC(CCC)C(=O)O [VALPROIC ACID] ?
A) > 300 µM

Q) Could you share which AC50 value was measured for CC(C)Cc1ccc(C(C)C(=O)O)cc1 (centres undefined) [IBUPROFEN] ?
A) > 300 µM

* * *

- SUBJECT_OF_TEST: Alpha-1A adrenergic receptor (Homo sapiens, UniProt P35348)
- Sequence (P35348 whole entry): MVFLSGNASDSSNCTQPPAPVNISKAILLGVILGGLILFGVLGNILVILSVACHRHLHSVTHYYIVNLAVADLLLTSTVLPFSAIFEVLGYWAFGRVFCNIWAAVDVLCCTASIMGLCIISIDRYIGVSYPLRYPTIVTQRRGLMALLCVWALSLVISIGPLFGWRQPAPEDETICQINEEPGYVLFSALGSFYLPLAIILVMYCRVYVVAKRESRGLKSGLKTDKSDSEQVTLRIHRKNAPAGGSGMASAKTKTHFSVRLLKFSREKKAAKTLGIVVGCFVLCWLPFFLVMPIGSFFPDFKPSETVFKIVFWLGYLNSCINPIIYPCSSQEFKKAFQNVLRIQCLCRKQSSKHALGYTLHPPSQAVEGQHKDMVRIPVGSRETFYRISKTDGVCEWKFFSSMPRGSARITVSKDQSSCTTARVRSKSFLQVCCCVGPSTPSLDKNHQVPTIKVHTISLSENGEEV
- Assay type: functional, cell-based
PROPERTY_MEASURED: AC50

Q) Could you share which AC50 value was measured for Cc1onc(-c2ccccc2)c1-c1ccc(S(N)(=O)=O)cc1 ?
A) > 30 µM

Q) Could you share which AC50 value was measured for CCn1cc(C(=O)O)c(=O)c2cc3c(cc21)OCO3 ?
A) > 30 µM

Q) Could you share which AC50 value was measured for CN(C)CCOC(c1ccccc1)c1ccc(Br)cc1 (stereo not given) [BROMODIPHENHYDRAMINE] ?
A) > 30 µM

Q) Could you share which AC50 value was measured for NCC(CC(=O)O)c1ccccc1 (stereo not given) ?
A) > 30 µM

Q) Could you share which AC50 value was measured for COc1cc2nccc(Oc3ccc(NC(=O)C4(C(=O)Nc5ccc(F)cc5)CC4)cc3)c2cc1OC [CABOZANTINIB] ?
A) > 30 µM

Q) Could you share which AC50 value was measured for C[C@H](Cc1cc2c(c(C(N)=O)c1)N(CCCO)CC2)NCCOc1ccccc1OCC(F)(F)F ?
A) > 30 µM

Q) Could you share which AC50 value was measured for CC(CN1CC(=O)NC(=O)C1)N1CC(=O)NC(=O)C1 (stereo not given) ?
A) > 30 µM

Q) Could you share which AC50 value was measured for CN1CCN(C2=Nc3ccccc3Oc3ccc(Cl)cc32)CC1 ?
A) > 30 µM

Q) Could you share which AC50 value was measured for Cc1cc(C(C)(C)C)cc(C)c1CC1=NCCN1 ?
A) 0.0003 µM

Q) Could you share which AC50 value was measured for C[C@H]1O[C@@H](n2cc(F)c(=O)[nH]c2=O)[C@H](O)[C@@H]1O ?
A) > 30 µM
